test system: UACC-62; assay: NCI tumour cell line growth inhibition, 48 h
The source made the active and inactive calls. No stated cut-off is given here; in the data, active = GI50 up to about 1.1 µM and inactive = higher.
The following compounds are shown together with reported GI50 values.
measurement.kind: GI50

compound	experimental.target	assay.value
C[Si](C)(C)/C=C/CN1C(=O)CCC1=O	UACC-62	> 100 µM (inactive)
O=c1[nH]nc(Cc2ccc(Cl)cc2)n1CCO	UACC-62	> 100 µM (inactive)
COc1cc2cc(C(=O)N3CC(CCl)c4c3cc(NC(=O)C(C)Nc3c([N+](=O)[O-])cc(C(=O)NCCN(C)C)cc3[N+](=O)[O-])c3ccccc43)[nH]c2c(OC)c1OC (stereo unspecified)	UACC-62	0.0586 µM (active)
COc1cc(O)cc2oc(-c3ccc(O)cc3)cc(=O)c12	UACC-62	83.9 µM (inactive)
Cc1nn(C(=O)c2ccncc2)c2c1C(c1ccccc1[N+](=O)[O-])SC(=N)N2 (stereo unspecified)	UACC-62	> 10 µM (inactive)
CCC(C)C(Nc1c2ccccc2nc2c(C(=O)NCCN(C)C)cccc12)C(=O)O (stereo unspecified)	UACC-62	15.9 µM (inactive)

---

test system: OVCAR-4; assay: NCI tumour cell line growth inhibition, 48 h
The source made the active and inactive calls. No stated cut-off is given here; in the data, active = GI50 up to about 1.1 µM and inactive = higher.
Classes used: active, inactive

compound	class
CCCCCCCCCCCCCC(=O)NCC(OCC)OCC	inactive
O=c1[nH]c(=O)n(C2CC(O)C(CO)O2)cc1C(OCC(F)(F)F)OCC(F)(F)F (configuration not stated)	inactive
CCCCCCCCCCCCCCCCP(=O)(OC)OC	inactive
Cc1ccc(Nc2nc(-c3ccc(-c4ccc([N+](=O)[O-])cc4)o3)cs2)cc1	inactive
O=S(=O)(O)SC/C=C\CSS(=O)(=O)O	inactive
COc1ccc2c(=O)c(-c3cc(OC)c(OC)cc3OC)coc2c1	inactive
O=S(=O)(O)c1ccc(/N=N/c2ccccc2)cc1	inactive
c1ccc(NN/N=N/c2ccc(-c3nc4ccccc4[nH]3)cc2)cc1	inactive
Cc1cc(Cc2c(F)c(F)c(Cc3cc(C)no3)c(F)c2F)on1	inactive
Cc1ccc(-c2c(C#N)c(-c3ccccc3)n(NS(=O)(=O)c3ccccc3)c(=O)c2C#N)cc1	inactive
CC(=O)Oc1ccc2cc(Oc3ccc(Cl)c(Cl)c3)c(=O)oc2c1	inactive
O=C(CSc1nnc(Cc2ccccc2)o1)Nc1ccc(Cl)cc1[N+](=O)[O-]	inactive
CC(=O)O[C@H]1CC[C@@]2(C)C(=CC[C@@H]3[C@@H]2CC[C@]2(C)c4nc(N)c(C#N)cc4C[C@@H]32)C1	inactive
COc1ccc(Cc2nc3cc(C(F)(F)F)ccc3n2C[C@@H]2CCCN3CCCCC23)cc1 (some centres not stated)	inactive
O=C1/C(=C/c2ccccc2)CN(C(=O)Oc2ccc([N+](=O)[O-])cc2)C/C1=C\c1ccccc1	inactive
N#CCCN(CCC#N)c1ccc(/C=N\c2nc(-c3ccccc3)cs2)cc1	inactive
C[C@@H](c1ccccc1)N1CN(C(=O)OCc2ccccc2)C(C)(C)CC1=O	inactive
CC(=O)Nn1c(Cc2ccc(Cl)cc2)nn(C)c1=O	inactive
COc1cc(/C=C/C2=NN(c3cccc(S(=O)(=O)O)c3)C3(C2)C(Cl)C(=O)N3c2nc3ccccc3s2)ccc1O (configuration not stated)	inactive
Cc1ccc(S(=O)(=O)c2[nH]cc(/C(=C\C3CCCCC3)[N+](=O)[O-])c2C2CCCCC2)cc1	active
Nc1n[c-](N)[n+](=O)c(N)c1NCO	inactive
CC(=O)Oc1ccccc1C(=O)Nc1ncc([N+](=O)[O-])s1 [NITAZOXANIDE]	inactive
N#CC(C(=N/NC(N)=S)/C(=N\NC(N)=S)C(C#N)c1ccccc1)c1ccccc1 (configuration not stated)	inactive
CNC(=O)N(CCC#N)CCN(C(=O)N(C)C)c1ccccc1	inactive
O=C1C(O)=C(C(C2=C(O)C(=O)c3ccccc3C2=O)c2ccc(Cl)cc2)C(=O)c2ccccc21	inactive
CCOC(=O)CNC(SC)=C(C#N)C#N	inactive
O=C(CC(=O)c1ccncc1)c1ccccc1	inactive
CCc1cccc(C(C)CC)c1NC(=O)C(=O)C(CC(=O)Nc1ccc(Cl)c(Cl)c1)C(=O)OC (configuration not stated)	inactive
CSc1ccc2c(cc1=O)[C@@H](NC(=O)c1ccc(F)cc1)CCc1cc(O)c(O)c(O)c1-2	inactive
COc1ccc(CCCCl)c(C2=NCCc3cc(OC)c(OC)cc32)c1	inactive
C=CCC1(C)CCCCC1(O)C[S+]([O-])c1ccccc1 (configuration not stated)	inactive
CCOC(=O)C(=O)Nc1c(F)cc(F)cc1Br	inactive
C(/C=N/N=C1NCCN1)=N\N=C1NCCN1	inactive
CSc1ccc2c(c1)C(N1CCN(C)CC1)Cc1ccccc1S2 (configuration not stated)	inactive
Cc1ccc2[nH]c3c(c(=O)n(C)c(=O)n3C)c2c1	inactive
COC(=O)C(Cc1c[nH]c2ccccc12)NP(=O)(O)OCC1OC(n2ccc(N)nc2=O)C(O)C1O (configuration not stated)	inactive
NC(=O)[C@H](Cc1ccc(O)cc1)NC1=C(Cl)C(=O)c2c(O)ccc(O)c2C1=O	inactive
CCCCCCCCC[C@@H]1C[C@@H]2CCC3C(C(=O)OCCCCNC(=O)OCc4ccccc4)=C(C)N=C(N1)N32 (some centres not stated)	inactive
c1ccc(CSC2(SCc3ccccc3)CCCC2)cc1	inactive
O=[N+]([O-])/C(C(Cl)=C(Cl)Cl)=C1\NCCO1	inactive
CCC1(O)C(=O)OCc2c1cc1n(c2=O)Cc2cc3c(N)cccc3nc2-1 (configuration not stated)	active
O=C(NN1C(=O)CS(=O)(=O)C1c1ccc(Cl)c(Cl)c1)c1ccncc1 (configuration not stated)	inactive

---

tested on: T47D; assay: NCI tumour cell line growth inhibition, 48 h
Activity calls are given as the source filed them. No stated cut-off is given here; in the data, active = GI50 up to about 1.1 µM and inactive = higher.
Classes used: active, inactive

compound	class
Cc1ccc(S(=O)(=O)c2[nH]cc(/C(=C\C3CCCCC3)[N+](=O)[O-])c2C2CCCCC2)cc1	active
COc1ccc(C(=O)NC2=C(Cl)C(=O)c3ccccc3C2=O)cc1	active
O=C(O)C1CCCCN1C(=O)Cc1c[nH]c2ccccc12 (stereo unspecified)	inactive
ClCC1(CCl)COC1	inactive
O=C(c1ccccc1Br)C(F)(F)F	inactive
Cc1nc2ccccc2n1C(=O)c1c(F)c(F)c(F)c(F)c1F	inactive

---

Listed compounds paired with reported GI50
system: EKVX; assay: NCI tumour cell line growth inhibition, 48 h
Calls of active or inactive are those of the source. No stated cut-off is given here; in the data, active = GI50 up to about 1.1 µM and inactive = higher.

compound	GI50
Cc1ccc(C)c(NC(=O)C(=O)C(c2cnc3ccc([N+](=O)[O-])cc3n2)[N+](=O)[O-])c1 (centres undefined)	30.8 µM (inactive)
O=C1c2cc(Cl)ccc2-n2cnnc2C2CSCN12 (centres undefined)	> 100 µM (inactive)
COC(=O)/C=C1/CCC(C(=O)OC)N1 (centres undefined)	> 100 µM (inactive)
CCOC(=O)Cc1nc2c(N)ncnc2n1C1OC(COC(C)=O)C(OC(C)=O)C1OC(C)=O (centres undefined)	> 100 µM (inactive)
Cc1ccc2[nH]c3c(c(=O)n(C)c(=O)n3C)c2c1	> 100 µM (inactive)
O=C(CC(=O)c1ccncc1)c1ccccc1	> 64.3 µM (inactive)
O=C(N1CCOCC1)C1(c2ccccc2)CCNCC1	> 100 µM (inactive)
CC(C)(C)COC(=O)C(C)(C)NC(=O)C(CC(=O)OCc1ccccc1)NC(=O)OCc1ccccc1 (centres undefined)	54.3 µM (inactive)
CN(CCCN(C)CCc1ccc(Cl)c(Cl)c1)CCCN1CCCC1	3.35 µM (inactive)
CN(C)/C=N/Cc1ccc2c(c1)OCO2	> 100 µM (inactive)
C/C=C/C(C/C=C(\C)CO[Si](C)(C)C(C)(C)C)O[Si](C)(C)C(C)(C)C (centres undefined)	> 100 µM (inactive)
O=C1C=C/C(=N\N=C(c2ccccc2)c2ccccc2)O1	> 10 µM (inactive)
COc1cc2ccnc3c2c(c1O)N(C)C=C3	17.4 µM (inactive)
CCc1cccc(C(C)CC)c1NC(=O)C(=O)C(CC(=O)Nc1ccc(Cl)c(Cl)c1)C(=O)OC (centres undefined)	> 100 µM (inactive)
CC(Nc1cc(=O)n(C)c(=O)[nH]1)c1ccccc1 (centres undefined)	> 100 µM (inactive)
COc1cc2c3c(n(C)c(=O)c2cc1OC)-c1cc2c(cc1C3=O)OCO2	35.3 µM (inactive)
O=C(N/N=C\C=C\c1ccc([N+](=O)[O-])o1)C(=O)N/N=C\C=C\c1ccc([N+](=O)[O-])o1	> 100 µM (inactive)
N#CC(Cc1ccccc1Br)N(CCC1=CCCCC1)C(c1ccccc1)c1ccccc1 (centres undefined)	51.4 µM (inactive)
Cc1cc(-c2ccccc2)nc2oc(=O)n(C)c12	42.8 µM (inactive)
O=C(N/N=C1/C(=O)N(c2ccc(Cl)cc2Cl)C(=O)C(=O)C1c1nc2ccccc2o1)c1ccccc1O (centres undefined)	45.7 µM (inactive)
O=C(CSCC(=O)N/N=C\c1cc(Cl)cc(Cl)c1O)N/N=C\c1cc(Cl)cc(Cl)c1O	4.45 µM (inactive)
O=C(NC1CCCCC1)NS(=O)(=O)c1ccc2c(c1)CCC2 [GLYHEXAMIDE]	> 100 µM (inactive)
Cc1oncc1/N=C1\C=C(O)C(=O)c2ccccc21	14.6 µM (inactive)
COc1ccc(N2C(=O)C3c4[nH]c5ccc(C)cc5c4C4CCC(c5ccccc5)CC4C3C2=O)cc1 (centres undefined)	> 64.3 µM (inactive)
Oc1cc(F)cc2cccnc12	0.418 µM (active)
Cc1[nH]c2c(C)cccc2c1C1Cc2ccccc2N1 (centres undefined)	15.5 µM (inactive)
C=CCn1c(=S)sc2c(C(=O)OCC)c3c(C)cc(C)cn3c2c1=O	> 100 µM (inactive)
O=C(N/C(=C\c1ccc(Br)cc1)c1nc2ccccc2s1)c1ccccc1	37.5 µM (inactive)
Cc1nn(C(=O)c2ccncc2)c2c1C(c1ccccc1[N+](=O)[O-])SC(=N)N2 (centres undefined)	> 10 µM (inactive)
CC(=O)NN(c1ccccc1)C1CCN(c2ccccc2)N1C(C)=O (centres undefined)	> 10 µM (inactive)
O=C(O)C#CCO	> 100 µM (inactive)
C/C(CC(=O)Nc1cc(C)ccc1C)=N/N=C(N)N	> 100 µM (inactive)
Oc1c2c(c(O)c3ccccc13)C1(N=N2)c2ccccc2Oc2ccccc21	13 µM (inactive)
CCOC(=O)CCC(C(=O)OCC)n1nc2ccc(Nc3c(C)[n+]([O-])c4cc(Cl)ccc4[n+]3[O-])cc2n1 (centres undefined)	32.2 µM (inactive)
CC1(C)CC(=O)C2=C(C1)OC1=C(CC(C)(C)CC1=O)C2c1ccccc1[N+](=O)[O-] (centres undefined)	> 100 µM (inactive)
O=c1oc2ccc3ccccc3c2cc1-c1cn2ccsc2n1	16.1 µM (inactive)
CCCCC[C@@H]1OC(=O)[C@@]2(CC3c4ccccc4C2c2ccccc23)[C@H]1C(=O)OC	39.7 µM (inactive)
O=C1c2ccccc2N2OC3(N4CCCC4)CCCCC3C12c1ccccc1 (centres undefined)	69.8 µM (inactive)
CCC(=O)Nc1ccc(NS(=O)(=O)c2ccc(Cl)cc2)cc1	39.8 µM (inactive)
COc1nc(SC)nc2c1cnn2C1OC(C(O)CO)C(OC)C1O (centres undefined)	> 100 µM (inactive)
O=c1[nH]c(=O)c2c([nH]1)[nH]c1ccccc12	> 100 µM (inactive)
O=C(O)C1CCCCN1C(=O)Cc1c[nH]c2ccccc12 (centres undefined)	> 100 µM (inactive)
COc1cccc(Nc2nc(NNC(=O)Cc3ccccc3)nc(NNC(=O)c3ccncc3)n2)c1	> 10 µM (inactive)
CSc1ccc2c(c1)C(N1CCN(C)CC1)Cc1ccccc1S2 (centres undefined)	3.34 µM (inactive)

Every entry's value here was drawn from ChEMBL document CHEMBL1201862.
